All values here come from patent US20260206828A1.

Test: Retention index (RI) measurement by GC/MS
Format: physicochemical
Details: HP-5 MS column (95% dimethylpolysiloxane/5% phenyl-methylpolysiloxane), 1000 ppm in ethanol, n-alkane mixture C6-C35, linear method
Procedure: Menthol (L-Menthol, manufactured by Takasago International Corporation) and cooling sensation agents (the abovementioned COOLACT® 370, COOLACT® 5, COOLACT® 10, COOLACT® 20, Symcool® WS-5, and Symcool® WS-23) were respectively diluted by adding ethanol to obtain diluted solutions of menthol and each cooling sensation agent diluted to 1000 ppm in ethanol. […] The chromatogram retention index (RI) obtained by the abovementioned GC/MS analysis was calculated by the following method. […]
Quick reference: Retention index (RI) of the listed items.
I only need the number, thanks.

Past entries and their recorded results:
Compound	Retention index (RI)
CC(C)[C@@H]1CC[C@@H](C)C[C@H]1OCCO	1414
CC1CCC(C(C)C)C(OCC(O)CO)C1 (stereo not drawn)	1674

# input for lookup
Input: I would be grateful if you could share the reported Retention index (RI) for CCOC(=O)CNC(=O)C1CC(C)CCC1C(C)C (stereo not drawn) .
Output: 1942
